I'd appreciate it if you could supply log10(IC50) values for the items below.
tested-on: UniProt:P46059
method-summary: Binding affinity to human PEPT1 assessed as inhibition of [14C]Gly-Sar uptake in MDCK cells
Assay type: functional, cell-based
test-parameters: read-out: IC50
Where a SMILES comes first, the peptide text is derived from it.
Recall that a logarithmic scale is used here: each number is log10 of IC50 in µM.

Quick check: log10(IC50) of CC(C)C[C@H](NC(=O)[C@@H]1CCCN1)C(=O)O (H-Pro-Leu-OH) ?
2.79

Again, but for CC(C)[C@H](NC(=O)[C@@H](N)CC(=O)O)C(=O)O (H-Asp-Val-OH)
2.49

Lookup C[C@H](N)C(=O)N[C@@H](CC(=O)O)C(=O)O (H-Ala-Asp-OH)
2.65

Try this compound next: NC(=O)CC[C@H](NC(=O)[C@@H](N)CCC(N)=O)C(=O)O (H-Gln-Gln-OH)
2.18

Also, CC(C)C[C@H](NC(=O)[C@@H](N)CC(C)C)C(=O)O please.
2.23

Next compound up: N[C@@H](CC(=O)O)C(=O)N[C@@H](Cc1c[nH]c2ccccc12)C(=O)O (H-Asp-Trp-OH)
3.12

Same again, this time with CC(C)C[C@H](NC(=O)CN)C(=O)NCC(=O)O (H-Gly-Leu-Gly-OH)
2.38

# iterate: CC(C)[C@H](N)C(=O)N[C@H](C(=O)N[C@H](C(=O)O)C(C)C)C(C)C (H-Val-Val-Val-OH)
2.36

Field entry: NC(=O)[C@H](Cc1ccc(O)cc1)NC(=O)[C@@H](N)Cc1ccccc1 (H-Phe-Tyr-NH2)
1.30

====

tested-on: Solute carrier family 15 member 1 (Homo sapiens)
Sequence (P46059 whole entry): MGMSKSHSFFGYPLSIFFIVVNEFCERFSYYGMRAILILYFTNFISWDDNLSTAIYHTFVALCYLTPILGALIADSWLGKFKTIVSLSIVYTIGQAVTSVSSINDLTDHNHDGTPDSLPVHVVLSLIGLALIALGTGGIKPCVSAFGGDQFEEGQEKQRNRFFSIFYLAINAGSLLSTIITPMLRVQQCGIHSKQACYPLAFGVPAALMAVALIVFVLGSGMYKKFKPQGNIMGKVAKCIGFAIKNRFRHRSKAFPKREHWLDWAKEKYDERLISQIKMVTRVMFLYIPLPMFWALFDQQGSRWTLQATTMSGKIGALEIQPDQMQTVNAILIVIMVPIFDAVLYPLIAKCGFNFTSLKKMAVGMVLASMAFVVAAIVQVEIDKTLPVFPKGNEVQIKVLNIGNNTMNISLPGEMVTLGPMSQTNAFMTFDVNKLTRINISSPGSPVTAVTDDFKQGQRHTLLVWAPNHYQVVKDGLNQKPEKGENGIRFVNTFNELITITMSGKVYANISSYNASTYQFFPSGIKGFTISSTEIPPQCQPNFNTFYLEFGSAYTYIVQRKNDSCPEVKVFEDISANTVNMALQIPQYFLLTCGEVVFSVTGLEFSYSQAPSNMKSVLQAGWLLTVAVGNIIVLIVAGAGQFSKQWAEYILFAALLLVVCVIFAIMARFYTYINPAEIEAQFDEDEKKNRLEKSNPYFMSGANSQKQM
method-summary: Activation of human PEPT1 expressed in MDCK cells
Where a SMILES comes first, the peptide text is derived from it.
property-label: pEC50
Please treat pEC50 as minus the base-10 logarithm of the molar concentration.

GET /values?readout=pEC50&item= N[C@@H](CCC(=O)O)C(=O)N[C@@H](CCC(=O)O)C(=O)O (H-Glu-Glu-OH)
3.00

Next: CC(C)C[C@H](NC(=O)CN)C(=O)NCC(=O)O (H-Gly-Leu-Gly-OH)
3.68

Input NCC(=O)N[C@@H](CCC(=O)O)C(=O)O (H-Gly-Glu-OH)
2.96

Try this compound next: N[C@@H](CC(=O)O)C(=O)N[C@@H](CC(=O)O)C(=O)O (H-Asp-Asp-OH)
3.00

Repeat for the following compound: C[C@H](NC(=O)[C@@H](N)Cc1c[nH]c2ccccc12)C(=O)O (H-Trp-Ala-OH)
4.00

Now consider N[C@@H](CO)C(=O)N[C@@H](CO)C(=O)O (H-Ser-Ser-OH) and answer again.
3.85

Would you kindly repeat that for NCC(=O)N[C@@H](Cc1ccc(O)cc1)C(=O)O (H-Gly-Tyr-OH) ?
3.85

Proceed to NCC(=O)N[C@@H](Cc1c[nH]cn1)C(=O)O (H-Gly-His-OH)
3.40

Now the compound N[C@@H](Cc1c[nH]cn1)C(=O)N[C@@H](Cc1c[nH]cn1)C(=O)O
3.43

Follow-up item: NCC(=O)NCC(=O)O (H-Gly-Gly-OH)
3.32

Can you handle CC(C)C[C@H](NC(=O)[C@@H]1CCCN1)C(=O)O (H-Pro-Leu-OH) next?
3.60

# repeat for C[C@H](N)C(=O)N[C@@H](Cc1c[nH]c2ccccc12)C(=O)O (H-Ala-Trp-OH)
4.10

Now the compound CC(C)C[C@H](NC(=O)[C@@H](N)CC(C)C)C(=O)O
4.10

Quick one: C[C@H](N)C(=O)N[C@@H](Cc1ccccc1)C(=O)O
4.10

What do you get for NCC(=O)N1CCC[C@H]1C(=O)O [GLYCYL PROLINE] (H-Gly-Pro-OH) ?
3.89

And for O=C(O)[C@H](CO)NC(=O)[C@@H]1CCCN1 (H-Pro-Ser-OH) ?
2.80

Do the same for N[C@@H](Cc1c[nH]cn1)C(=O)N[C@@H](Cc1c[nH]c2ccccc12)C(=O)O please
3.72

====

Would you kindly list pIC50 for each of these compounds?
tested-on: Solute carrier family 15 member 1 (Homo sapiens, UniProt P46059)
Sequence (P46059 whole entry): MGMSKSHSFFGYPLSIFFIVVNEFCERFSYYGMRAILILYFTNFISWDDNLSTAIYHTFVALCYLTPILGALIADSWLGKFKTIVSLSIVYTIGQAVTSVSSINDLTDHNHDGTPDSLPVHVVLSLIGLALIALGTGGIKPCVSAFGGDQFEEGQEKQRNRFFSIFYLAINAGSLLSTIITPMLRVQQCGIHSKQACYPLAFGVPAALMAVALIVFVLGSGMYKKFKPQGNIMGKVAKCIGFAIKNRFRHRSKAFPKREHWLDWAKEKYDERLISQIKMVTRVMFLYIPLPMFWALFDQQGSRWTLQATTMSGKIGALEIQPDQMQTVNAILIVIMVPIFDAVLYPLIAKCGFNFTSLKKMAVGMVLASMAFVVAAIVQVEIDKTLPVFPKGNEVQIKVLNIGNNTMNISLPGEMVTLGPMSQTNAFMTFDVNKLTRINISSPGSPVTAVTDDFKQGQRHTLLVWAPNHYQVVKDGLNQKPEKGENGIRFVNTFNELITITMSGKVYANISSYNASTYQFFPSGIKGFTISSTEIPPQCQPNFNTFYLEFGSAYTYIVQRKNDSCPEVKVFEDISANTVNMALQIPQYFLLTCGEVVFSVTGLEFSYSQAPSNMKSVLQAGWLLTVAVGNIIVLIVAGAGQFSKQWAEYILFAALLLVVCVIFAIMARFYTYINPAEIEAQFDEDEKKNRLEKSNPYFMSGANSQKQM
method-summary: Binding affinity to human PEPT1 assessed as inhibition of [14C]Gly-Sar uptake in MDCK cells
Format: functional, cell-based
test-parameters: read-out: IC50
Where a SMILES comes first, the peptide text is derived from it.
// scale note: pIC50 = -log10(conc_M); give the bare number

Would you mind telling me what pIC50 value was observed for NCCCC[C@H](N)C(=O)N[C@@H](CCCN=C(N)N)C(=O)O (H-Lys-Arg-OH) ?
2.14

Thanks! And N[C@@H](Cc1c[nH]cn1)C(=O)NCC(=O)O (H-His-Gly-OH) ?
3.47

Now give it for NCC(=O)N[C@@H](CC(=O)O)C(=O)O (H-Gly-Asp-OH) too.
3.42

Try the compound N[C@@H](CC(=O)O)C(=O)NCC(=O)O (H-Asp-Gly-OH)
3.09

Next compound: C[C@H](N)C(=O)N[C@@H](CCCCN)C(=O)O (H-Ala-Lys-OH)
3.55

====

For each record, write down the corresponding log10 IC50.
tested-on: Solute carrier family 15 member 1 (Homo sapiens)
method-summary: Binding affinity to human PEPT1 assessed as inhibition of [14C]Gly-Sar uptake in MDCK cells
Type: functional, cell-based
test-parameters: read-out: IC50
Where a SMILES comes first, the peptide text is derived from it. [ ]: non-standard residue; d: D form. Sar = CNCC(=O)O
The base-10 logarithm of IC50, taken with IC50 in µM, is what appears here.

Give the measured log10 IC50 of CC(C)[C@H](NC(=O)[C@@H](N)CCCCN)C(=O)O (H-Lys-Val-OH) .
2.40

Again, but for N[C@@H](Cc1c[nH]cn1)C(=O)N[C@@H](Cc1c[nH]c2ccccc12)C(=O)O
2.98

What about this compound? NC(N)=NCCC[C@H](NC(=O)[C@@H](N)CCCN=C(N)N)C(=O)O (H-Arg-Arg-OH)
3.86

Likewise for CN(CC(=O)O)C(=O)CN [GLYCYLSARCOSINE] (H-Gly-[Sar]-OH) ?
3.06

Next compound up: N[C@@H](Cc1ccccc1)C(=O)NCC(=O)O (H-Phe-Gly-OH)
2.23

Another: C[C@H](N)C(=O)N[C@@H](Cc1ccc(O)cc1)C(=O)O (H-Ala-Tyr-OH)
2.23

Check N[C@@H](CC(=O)O)C(=O)N[C@@H](CC(=O)O)C(=O)O (H-Asp-Asp-OH) too.
2.80

What do you get for O=C(O)[C@@H]1CCCN1C(=O)[C@@H]1CCCN1 (H-Pro-Pro-OH) ?
2.90
